These measurements were taken from ChEMBL document CHEMBL3988442.

- Assay target: Proteasome subunit beta (Trypanosoma cruzi) (UniProt O96673)
- Sequence (O96673 as listed by the source): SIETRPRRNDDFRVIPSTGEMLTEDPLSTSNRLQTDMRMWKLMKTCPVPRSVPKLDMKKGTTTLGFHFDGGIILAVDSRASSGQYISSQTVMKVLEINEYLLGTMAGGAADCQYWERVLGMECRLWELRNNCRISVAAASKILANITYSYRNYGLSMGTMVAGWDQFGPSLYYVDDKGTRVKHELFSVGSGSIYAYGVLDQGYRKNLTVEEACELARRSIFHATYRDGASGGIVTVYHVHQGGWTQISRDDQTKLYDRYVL
- Protocol: Trypanosoma cruzi proteasome chymotrypsin-like activity (TcProtChymo) assay. Further: in the data most compounds retested in dose-response had high values.
- Format: functional
- Parameters: scale not given: direction of the effect not stated beside the values
- Condition parameters: 9.37 µM
Quantity: Percent Effect (%)
Numbers only here, please. The scale is %.

Recorded results for 5 compounds are shown here.
compound=CC1CCN(CCCNS(=O)(=O)c2cccc(F)c2)CC1 obs_value=0.166
compound=COc1ccc(Cc2nnc(SC)o2)cc1OC obs_value=8.72
compound=O=C1COC2(CCN(Cc3ccoc3)CC2)CN1c1ccsc1 obs_value=14.4
compound=Cc1ccccc1NS(=O)(=O)c1cc2c(c(C(=O)O)c1)OCCO2 obs_value=5.67
compound=Cc1nc(CN2CCN(C(=O)c3ccn(C)c(=O)c3)CC2)cs1 obs_value=15.9

Read the next record carefully.
// Percent Effect lookup, key: `CSc1ncc(C(=O)N2C[C@H]3CC[C@@H]2CN(Cc2ccccc2)C3)cn1`
11

----------
- Assay target: Tyrosyl-tRNA synthetase, putative (Trypanosoma cruzi (strain CL Brener)) (UniProt Q4DSP6)
- Sequence (Q4DSP6 as listed by the source): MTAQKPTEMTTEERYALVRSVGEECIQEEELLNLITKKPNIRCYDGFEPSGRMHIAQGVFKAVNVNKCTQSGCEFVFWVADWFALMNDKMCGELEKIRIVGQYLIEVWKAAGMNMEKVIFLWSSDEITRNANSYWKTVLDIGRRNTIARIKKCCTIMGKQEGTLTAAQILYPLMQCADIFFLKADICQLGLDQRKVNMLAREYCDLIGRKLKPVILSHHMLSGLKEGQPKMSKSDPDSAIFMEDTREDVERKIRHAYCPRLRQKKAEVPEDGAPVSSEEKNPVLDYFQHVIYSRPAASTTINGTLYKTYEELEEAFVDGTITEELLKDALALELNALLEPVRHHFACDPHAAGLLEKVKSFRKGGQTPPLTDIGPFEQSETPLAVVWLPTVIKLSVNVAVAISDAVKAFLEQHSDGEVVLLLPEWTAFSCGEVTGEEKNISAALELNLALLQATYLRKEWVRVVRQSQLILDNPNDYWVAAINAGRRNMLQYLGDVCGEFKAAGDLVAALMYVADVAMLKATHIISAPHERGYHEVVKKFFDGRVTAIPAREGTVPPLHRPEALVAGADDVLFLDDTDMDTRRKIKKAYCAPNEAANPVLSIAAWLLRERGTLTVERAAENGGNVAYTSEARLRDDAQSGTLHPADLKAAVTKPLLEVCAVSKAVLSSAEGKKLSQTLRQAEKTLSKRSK
- Protocol: Trypanosoma cruzi tyrosyl tRNA synthetase (TcYRS) _High Tyrosine SOP; further: in the data most compounds retested in dose-response had high values
- Format: functional
- Parameters: scale not given: direction of the effect not stated beside the values
- Condition parameters: 30 µM
Items are presented alongside their recorded Percent Effect.
Numbers only here, please. The scale is %.

Recorded results for 5 compounds are shown here.
compound="CCCNC(=O)C(C)n1cc(Br)cn1 (configuration not stated)" quantity="Percent Effect" obs_value=4.3
compound=O=S(=O)(NCC1CCN(c2cnccn2)CC1)c1c(F)cccc1F quantity="Percent Effect" obs_value=3.17
compound="CN1CCC(C(=O)NCc2nncn2-c2ccccc2)CC1=O (configuration not stated)" quantity="Percent Effect" obs_value=4.43
compound=Cc1ncc(CNC(=O)Nc2cc(C(F)(F)F)c[nH]c2=O)s1 quantity="Percent Effect" obs_value=-1.05
compound="CN(C)C(=O)c1ccc2c(c1)N(C)C(CC(=O)NC(C)(C)CO)CO2 (configuration not stated)" quantity="Percent Effect" obs_value=-2.1

// Percent Effect lookup, key: Cc1nc(N2CCN(C)CC2)ncc1C(=O)N1CC(C)(C)C(C)(O)C1 (configuration not stated)
0

// Percent Effect lookup, key: COc1ccc(OCCCN2CCOC(Cn3cccn3)C2)cc1 (configuration not stated)
1.04

// Percent Effect lookup, key: `COCCc1noc(CN2CCc3nn(C(C)C)c(=O)cc3C2)n1`
5.42

// Percent Effect lookup, key: CCn1c(C)nnc1CN(C)C1CCN(Cc2cnc(C)cn2)C1 (configuration not stated)
8.6

// Percent Effect lookup, key: `Cc1ccc(CNC2CCN(CCc3ccncc3)CC2)s1`
7.92

----------
Items are presented alongside their recorded Percent Effect.
- Assay target: Ubiquitin-activating enzyme e1, putative (Leishmania donovani (strain BPK282A1)) (UniProt E9BSI1)
- Sequence (E9BSI1 as listed by the source): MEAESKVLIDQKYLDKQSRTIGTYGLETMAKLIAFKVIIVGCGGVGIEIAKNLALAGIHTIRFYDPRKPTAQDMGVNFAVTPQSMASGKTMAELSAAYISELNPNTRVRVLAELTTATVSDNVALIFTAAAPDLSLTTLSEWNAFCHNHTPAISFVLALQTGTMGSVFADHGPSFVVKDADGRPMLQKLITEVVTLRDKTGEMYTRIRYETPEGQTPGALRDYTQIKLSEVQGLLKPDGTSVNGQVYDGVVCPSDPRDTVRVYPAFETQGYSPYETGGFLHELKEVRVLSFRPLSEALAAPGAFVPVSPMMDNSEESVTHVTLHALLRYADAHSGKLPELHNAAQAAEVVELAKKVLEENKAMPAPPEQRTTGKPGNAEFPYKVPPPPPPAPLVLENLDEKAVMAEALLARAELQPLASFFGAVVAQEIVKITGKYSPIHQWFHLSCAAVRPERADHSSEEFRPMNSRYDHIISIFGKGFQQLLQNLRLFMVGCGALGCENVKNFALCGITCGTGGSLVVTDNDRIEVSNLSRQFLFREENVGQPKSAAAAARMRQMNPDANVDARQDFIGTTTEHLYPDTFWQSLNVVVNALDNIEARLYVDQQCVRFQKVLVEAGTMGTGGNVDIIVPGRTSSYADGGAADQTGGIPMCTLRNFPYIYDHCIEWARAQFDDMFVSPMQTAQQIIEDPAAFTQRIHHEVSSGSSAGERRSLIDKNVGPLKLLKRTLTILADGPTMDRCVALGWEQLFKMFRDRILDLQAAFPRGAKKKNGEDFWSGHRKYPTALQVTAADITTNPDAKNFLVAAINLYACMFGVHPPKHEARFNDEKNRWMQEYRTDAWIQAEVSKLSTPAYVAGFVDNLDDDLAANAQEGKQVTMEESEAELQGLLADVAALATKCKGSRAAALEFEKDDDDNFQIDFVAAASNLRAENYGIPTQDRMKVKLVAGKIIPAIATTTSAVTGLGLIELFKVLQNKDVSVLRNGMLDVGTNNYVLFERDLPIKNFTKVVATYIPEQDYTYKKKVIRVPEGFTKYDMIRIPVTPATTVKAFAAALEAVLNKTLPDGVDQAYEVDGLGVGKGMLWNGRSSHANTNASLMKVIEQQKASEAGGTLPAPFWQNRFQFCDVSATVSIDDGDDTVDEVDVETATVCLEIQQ
- Protocol: Leishmania donovani Ubiquitin Activating Enzyme (LdE1)
- Format: functional
- Parameters: scale not given: direction of the effect not stated beside the values
- Condition parameters: 30 µM
Results with a measured potency or affinity are listed apart.

molecule=COc1ccccc1OCC(=O)NS(=O)(=O)c1ccccc1F obs_value=13.5%
molecule=O=C(Cn1cc(I)cn1)Nc1cccnc1 obs_value=0%
molecule="CCNC(=O)N1CCCCC1CCNS(C)(=O)=O (configuration not stated)" obs_value=5.41%

// Percent Effect lookup, key: CC(O)CN1CCN(C(=O)c2cc3ccccc3[nH]c2=O)CC1 (configuration not stated)
2.63%

// Percent Effect lookup, key: CCCn1nc(C)c(CNC(=O)C2COc3c(cccc3OC)C2)c1C (configuration not stated)
2.74%

// Percent Effect lookup, key: `CCN(CC)c1ccc(NS(=O)(=O)c2cnn(C)c2)cn1`
16.4%

// Percent Effect lookup, key: COC(=O)CCN1CCCC1c1ccccc1Cl (configuration not stated)
-2.67%

// Percent Effect lookup, key: `CCCNC(=O)CSc1nnc2[nH]c(=O)cc(CC)n12`
19.2%
